measurement description: Half-life in human hepatocytes
Type: in vitro ADME
quantity kind: half-life

The measured half-life associated with COC(=O)N[C@H](C(=O)N1CCC[C@H]1c1nc2ccc(-c3csc4c(-c5ccc(-c6cnc([C@@H]7CCCN7C(=O)[C@H](NC(=O)OC)c7ccccc7)[nH]6)cc5)csc34)cc2[nH]1)C(C)C [compound of Formula I] reads > 8 h

###

measurement description: Absolute oral bioavailability in rats
recorded conditions: rat, in vivo, dosed as a solution in 0.5% TPGS/37.5% PEG200/60% PBS, 10 mg/kg PO and 2 mg/kg IV
Method: The desired route of administration for the compound of Formula I is oral. The absolute oral bioavailability in rats was determined to be approximately 4-8% when dosed as a solution in 0.5% TPGS/37.5% PEG200/60% PBS. The doses were 10 mg/kg PO and 2 mg/kg IV.
quantity kind: bioavailability

Per the records, this compound ( "COC(=O)N[C@H](C(=O)N1CCC[C@H]1c1nc2ccc(-c3csc4c(-c5ccc(-c6cnc([C@@H]7CCCN7C(=O)[C@H](NC(=O)OC)c7ccccc7)[nH]6)cc5)csc34)cc2[nH]1)C(C)C" ) has bioavailability equal to 4 to 8%
